Each recorded value in this set is attributed to patent US20200216532A1.

Target: T1, purified interference factor(s), Donor A
T1 construct: also called interference in serum from Donor A
Experiment: SPR, interference factor immobilized
measuredMetric: % of binding of reference (=100%)
Reply with the number and its unit after it.

Lookup result for SEQ ID NO: 79 (VHH, Ex. 8) VHH: EVQLVESGGGLVQPGGSLRLSCAASRSIGRLDRMGWYRHRPGEPRELVATITGGSSINYGDSVKGRFTISIDNSKNTVYLQMNSLRPEDTAVYYCNFNKYVTSRDTWGQGTLVTVSS ; measured % of binding of reference (=100%): 1%

Lookup result for SEQ ID NO: 87 (VHH, Ex. 8) VHH: EVQLVESGGGSVQPGGSLRLSCAASRSIGRLDRMGWYRHRPGEPRELVATITGGSSINYGDSVKGRFTISIDNSKNTVYLQMNSLRPEDTAVYYCNFNKYVTSRDTWGQGTLVTVGG ; measured % of binding of reference (=100%): 51%

Lookup result for SEQ ID NO: 43 (VHH, Ex. 8) DVQLVESGGGLVQPGGSLRLSCAASGFILDYYAIGWFRQAPGKEREGVLCIDASDDITYYADSVKGRFTISRDNSKNTVYLQMNSLRPEDTAVYYCATPIGLSSSCLLEYDYDYWGQGTLVTVSSGGGGSGGGSEVQLLESGGGLVQPGGSLRLSCAASGFTFRSFGMSWVRQAPGKGPEWVSSISGSGSDTLYADSVKGRFTISRDNSKNTLYLQMNSLRPEDTAVYYCTIGGSLSRSSQGTLVTVSSA ; measured % of binding of reference (=100%): 3%
